The binders listed here are annotated with their Phage binding ELISA signal, Anti-PSMA Fab.
tgt: T1, PSMA Fab (biotinylated (site not stated))
T1 construct: Biotinylated PSMA Fab captured on neutravidin coated plates in the phage ELISA; also called anti-PSMA Fab; 006 PSMA Fab
test-details: clonal phage ELISA on biotinylated PSMA Fab captured on neutravidin plates, anti-M13-HRP detection;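 also: crude clonal phage supernatants added to wells preincubated with PSMA antigen or with blocking buffer only (no wash between), briefly incubated, then washed before detecting bound phage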
Where no end group is shown, it is not given here.

Solved entries:
{"binder": "MQMMCKPDWMCEGF [Phage-3388]", "measured-value": 1.8}
{"binder": "NGALCKPVWMCQGF [Phage-3383]", "measured-value": 1.81}
{"binder": "VEPLCRPFWMCVGF [Phage-3382]", "measured-value": 1.81}
{"binder": "ILPQCVPSWMCEGF [Phage-3385]", "measured-value": 1.81}
{"binder": "EMRYCVPRWMCEGF [Phage-3381]", "measured-value": 1.81}

Exam item: Please look up its Phage binding ELISA signal, Anti-PSMA Fab: IGAMCEPKWMCFGF (cysteine pairing not given here; also: fused to pIII of bacteriophage) [Phage-3389]
Marked response: 1.8

Exam item: Please look up its Phage binding ELISA signal, Anti-PSMA Fab: DVRLCRPSWMCSGF [Phage-3378]
Marked response: 1.81
